# protocol: Cytotoxicity against human U87 cells assessed as reduction in cell viability after 72 hrs by MTS assay
# Format: functional, cell-based, U-87MG ATCC
# assay-setup: U-87 MG
// pEC50 lookup, one value per entry
Reminder that pEC50 means the negative base-10 logarithm of the concentration expressed in mol/L.

[[record]]
compound = "CC(C)CCOC(=O)C[C@H](NP(=O)(OC[C@H]1O[C@@H](n2cc(I)c(=O)[nH]c2=O)C[C@@H]1O)Oc1ccccc1)C(=O)OCCC(C)C (some centres not stated)"
test_value = 4.42

[[record]]
compound = "CC(C)CCOC(=O)C[C@H](NP(=O)(OC[C@H]1O[C@@H](n2ccc(N)nc2=O)C(F)(F)[C@@H]1O)Oc1ccccc1)C(=O)OCCC(C)C (some centres not stated)"
test_value = 4.36

[[record]]
compound = "CC(C)CCOC(=O)C[C@H](NP(=O)(OC[C@H]1O[C@@H](n2cc(F)c(=O)[nH]c2=O)C[C@@H]1O)Oc1ccccc1)C(=O)OCCC(C)C (some centres not stated)"
test_value = 5.00

[[record]]
compound = "O=c1[nH]c(=O)n([C@H]2C[C@H](O)[C@@H](CO)O2)cc1F"
test_value = 4.74

[[record]]
compound = "CC(C)CCOC(=O)C[C@H](NP(=O)(OC[C@H]1O[C@@H](n2cc(/C=C/Br)c(=O)[nH]c2=O)C[C@@H]1O)Oc1ccccc1)C(=O)OCCC(C)C (some centres not stated)"
test_value = 4.89


Next up:
Task: Quick one: give measured pEC50 for CC(C)CCOC(=O)[C@H](CC(=O)OCc1ccccc1)NP(=O)(OC[C@H]1O[C@@H](n2ccc(N)nc2=O)C(F)(F)[C@@H]1O)Oc1ccccc1 (some centres not stated)
Result: 4.36

----------
# Test system: A549
# protocol: Cytotoxicity against human A549 cells assessed as reduction in cell viability after 72 hrs by MTS assay
# Assay type: functional, cell-based
# assay-setup: A549, 72 h
observable: pEC50
Reminder that pEC50 means the negative base-10 logarithm of the concentration expressed in mol/L.

[[record]]
compound = "CC(C)CCOC(=O)C[C@H](NP(=O)(OC[C@H]1O[C@@H](n2cc(I)c(=O)[nH]c2=O)C[C@@H]1O)Oc1ccccc1)C(=O)OCCC(C)C (some centres undefined)"
test_value = 4.57


Next up:
Task: Quick one: give measured pEC50 for CC(C)CCOC(=O)C[C@H](NP(=O)(OC[C@H]1O[C@@H](n2cc(F)c(=O)[nH]c2=O)C[C@@H]1O)Oc1ccccc1)C(=O)OCCC(C)C (some centres undefined)
Result: 4.36

----------
// EC50 lookup, one value per entry
# System: Ramos
# protocol: Cytotoxicity against human Ramos cells assessed as reduction in cell viability after 72 hrs by MTS assay
# Type: functional, cell-based
Param answer (str): number followed by unit.

Answered cases to consult:
[[record]]
compound = "CC(C)CCOC(=O)C[C@H](NP(=O)(OC[C@H]1O[C@@H](n2cc(F)c(=O)[nH]c2=O)C[C@@H]1O)Oc1ccccc1)C(=O)OCCC(C)C (some centres not stated)"
observable = "EC50"
test_value = "724 nM"

[[record]]
compound = "O=c1[nH]c(=O)n([C@H]2C[C@H](O)[C@@H](CO)O2)cc1I [IDOXURIDINE]"
observable = "EC50"
test_value = "47900 nM"

[[record]]
compound = "CC(C)CCOC(=O)C[C@H](NP(=O)(OC[C@H]1O[C@@H](n2ccc(N)nc2=O)C(F)(F)[C@@H]1O)Oc1ccccc1)C(=O)OCc1ccccc1 (some centres not stated)"
observable = "EC50"
test_value = "813 nM"

[[record]]
compound = "CC(C)CCOC(=O)C[C@H](NP(=O)(OC[C@H]1O[C@@H](n2cc(I)c(=O)[nH]c2=O)C[C@@H]1O)Oc1ccccc1)C(=O)OCCC(C)C (some centres not stated)"
observable = "EC50"
test_value = "13600 nM"

[[record]]
compound = "O=c1[nH]c(=O)n([C@H]2C[C@H](O)[C@@H](CO)O2)cc1F [FLOXURIDINE]"
observable = "EC50"
test_value = "7.51 nM"


Task: Report EC50 from Ramos testing of CCOC(=O)CC[C@H](NP(=O)(OC[C@H]1O[C@@H](n2ccc(N)nc2=O)C(F)(F)[C@@H]1O)Oc1ccccc1)C(=O)OCC (some centres not stated)
Result: 365 nM

Task: Report EC50 from Ramos testing of CC(C)CCOC(=O)C[C@H](NP(=O)(OC[C@H]1O[C@@H](n2ccc(N)nc2=O)C(F)(F)[C@@H]1O)Oc1ccccc1)C(=O)OCCC(C)C (some centres not stated)
Result: 294 nM
